Tested on: ryegrass, Italian (Italian ryegrass, Lolium multiflorum)
experiment_description: Test A preemergence
Format: in vivo
applied_conditions: Preemergence, 500 g ai/ha; 0 is no effect, 100 is complete control
Text: […]
recorded_metric: Ryegrass, Italian plant response rating (0 to 100 scale)

CN1CC(c2cccc(OC(F)(F)C(F)F)c2)C(C(=O)Nc2cccc(F)c2F)C1=O (stereo not shown) [Compound 392] ... 80
O=C1NCC(c2cccc(OCC(F)F)c2)C1C(=O)Nc1cccc(F)c1F (stereo not shown) [Compound 389] ... 0
CC(C)Oc1cccc(C2CN(C)C(=O)C2C(=O)Nc2ccc(F)cc2F)c1 (stereo not shown) [Compound 378] ... 80

Would you kindly look at the next entry?
Request: Any idea what Ryegrass, Italian plant response rating (0 to 100 scale) was measured for CN1CC(c2ccc(C(F)(F)F)c(F)c2)C(C(=O)Nc2cccc(F)c2F)C1=O (stereo not shown) [Compound 396] ?
Response: 70

---

System: ivy-leaved morning glory (Ipomoea hederacea)
experiment_description: Test G Post-Emergence Protocol
Type: in vivo
applied_conditions: Ipomoea, post-emergence, 312 h, 62.5 g ai/ha, evaluated after 13 days, 100=total damage to plant, 0=no damage to plant, read-out: Morningglory, Ivy-leaved damage rating
recorded_metric: pest or weed control at 62.5 g/ha (%)
The answer is to be given in %; state only the numeric part.

COc1cc(C)cc([C@@H]2CN(C)C(=O)[C@H]2C(=O)Nc2cccc(F)c2C)c1 (racemic) [Compound 1791] ... 70
Cc1cc(C2CN(C)C(=O)C2C(=O)Nc2cccc(F)c2F)cc(Cl)c1F (stereo not shown) [Compound 1708] ... 20
CN1C[C@H](c2ccc(C(F)(F)F)cc2)[C@@H](C(=O)Nc2cncnc2Cl)C1=O (racemic) [Compound 1748] ... 0

Next up:
Request: Can you share its pest or weed control at 62.5 g/ha? I mean this molecule: COc1ccc([C@@H]2CN(C)C(=O)[C@H]2C(=O)Nc2cccc(F)c2C)cc1Cl (racemic) [Compound 1793]
Response: 10

---

Tested on: barnyardgrass (Echinochloa crus-galli)
experiment_description: Test A preemergence
Assay type: in vivo
applied_conditions: Echinochloa crus-galli, pre-emergence, 240 h, 500 g ai/ha, Preemergence, visual injury vs untreated controls after approximately 10 d; read-out: Barnyardgrass plant response rating (0 to 100 scale where 0 is no effect and 100 is complete control)
recorded_metric: pest or weed control at 500 g/ha (%)
Kindly answer with a numeric value in %, unit omitted.

Solved entries:
Cc1cc(C)cc([C@H]2CN(C)C(=O)[C@@H]2C(=O)Nc2cccc(F)c2F)c1 [Compound 911] ... 100
O=C1NC[C@H](c2ccc(OC(F)F)cc2)[C@H]1C(=O)Nc1ccccc1F [Compound 778] ... 90
COc1cc([C@H]2CN(C)C(=O)[C@@H]2C(=O)Nc2ccccc2F)cc(C(F)(F)F)c1 [Compound 855] ... 100
COc1c(F)ccc([C@H]2CN(C)C(=O)[C@@H]2C(=O)Nc2ccc(F)c(F)c2F)c1Cl [Compound 895] ... 100
O=C1NC[C@H](c2cc(F)c(C(F)(F)F)c(F)c2)[C@H]1C(=O)Nc1cccc(F)c1F [Compound 838] ... 90

Request: Fill in: pest or weed control at 500 g/ha of CN1C[C@H](c2cccc(COC(F)F)c2)[C@@H](C(=O)Nc2cccc(F)c2F)C1=O [Compound 873] is ___
Response: 90

Request: // returns reported pest or weed control at 500 g/ha for input COc1c(F)ccc([C@H]2CN(C)C(=O)[C@@H]2C(=O)Nc2ccccc2F)c1Cl [Compound 892]
Response: 100

Request: Fill in: pest or weed control at 500 g/ha of Cc1cc([C@H]2CNC(=O)[C@@H]2C(=O)Nc2ccc(F)cc2F)ccc1Cl [Compound 791] is ___
Response: 90

---

The reader will find reported plant injury at 250 g/ha values listed item by item below.
System: corn (Zea mays)
experiment_description: Test G Post-Emergence Protocol
Format: in vivo
applied_conditions: Zea mays, post-emergence, 312 h, 250 g ai/ha, evaluated after 13 days, read-out: damage to plant, Corn (100=total damage to plant; 0=no damage to plant)
API: value field is a number in %; no unit string.

COc1c(Cl)ccc([C@H]2CN(C)C(=O)[C@@H]2C(=O)Nc2cccc(F)n2)c1F (racemic) [Compound 1477] ... 50
COc1c(Cl)cccc1NC(=O)[C@H]1C(=O)N(C)C[C@@H]1c1ccc(C(F)(F)F)cc1 (racemic) [Compound 1447] ... 10
CN1C[C@@H](c2ccc(C(F)(F)F)cc2)[C@H](C(=O)Nc2ccc(F)nc2)C1=O (racemic) [Compound 1555] ... 0

Query compound follows.
Request: Can you share its plant injury at 250 g/ha? I mean this compound: CCc1nccc(NC(=O)[C@@H]2C(=O)N(C)C[C@H]2c2ccc(C(F)(F)F)cc2)c1Cl (racemic) [Compound 1538]
Response: 10

---

// reported pest or weed control at 500 g/ha per item
System: giant foxtail (Setaria faberii)
experiment_description: Test A preemergence
Assay type: in vivo
applied_conditions: Setaria faberi, pre-emergence, 240 h, 500 g ai/ha, Preemergence, visual injury vs untreated controls after approximately 10 d; read-out: Foxtail, Giant plant response rating (0 to 100 scale where 0 is no effect and 100 is complete control)
Description: […]
Please give a number only; it is taken to be in %.

Answered examples (5):
CN1CC[C@H](c2cccc(Cl)c2)[C@@H](C(=O)Nc2ccccc2S(C)(=O)=O)C1=O [Compound 923] ... 70
CN1C[C@H](c2cc(F)c(C(F)(F)F)c(F)c2)[C@@H](C(=O)Nc2ccccc2F)C1=O [Compound 899] ... 90
O=C1NC[C@H](c2cc(F)c(C(F)(F)F)c(F)c2)[C@H]1C(=O)Nc1ccccc1F [Compound 837] ... 90
CCOc1ccc([C@H]2CN(C)C(=O)[C@@H]2C(=O)Nc2cccc(F)c2F)cc1 [Compound 904] ... 90
CN1C[C@H](c2cccc(OC(F)(F)C(F)F)c2)[C@@H](C(=O)Nc2ccccc2S(C)(=O)=O)C1=O [Compound 864] ... 90

Request: # get_value(readout='pest or weed control at 500 g/ha', item= COc1c(F)ccc([C@H]2CN(C)C(=O)[C@@H]2C(=O)Nc2ccccc2C(F)(F)F)c1Cl [Compound 896] )
Response: 100

Request: Item CN1C[C@H](c2cccc(F)c2)[C@@H](C(=O)Nc2ccccc2S(C)(=O)=O)C1=O [Compound 824] has what recorded pest or weed control at 500 g/ha?
Response: 100

Request: If you can, please state the reported pest or weed control at 500 g/ha value of COc1cc([C@H]2CN(C)C(=O)[C@@H]2C(=O)Nc2ccccc2F)cc(C(F)(F)F)c1 [Compound 855] .
Response: 90

Request: What measured pest or weed control at 500 g/ha goes with COc1c(F)ccc([C@H]2CNC(=O)[C@@H]2C(=O)Nc2ccc(F)cc2F)c1Cl [Compound 883] ?
Response: 90

Request: Which measured pest or weed control at 500 g/ha value corresponds to O=C1NC[C@H](c2cc(F)c(C(F)(F)F)c(F)c2)[C@H]1C(=O)Nc1cccc(F)c1F [Compound 838] ?
Response: 90

---

Tested on: giant foxtail (Setaria faberii)
experiment_description: Test A preemergence
Format: in vivo
applied_conditions: Setaria faberi, pre-emergence, 240 h, 125 g ai/ha, Preemergence, visual injury rating after approximately 10 d; read-out: Foxtail, Giant plant response rating (0 to 100 scale, 0 is no effect, 100 is complete control)
recorded_metric: pest or weed control at 125 g/ha (%)
Respond numerically; units are % and should not be typed.

The examples below pair each entry with its known result.
CCOc1cc([C@H]2CN(C)C(=O)[C@@H]2C(=O)Nc2cccc(F)c2F)cc(C(F)(F)F)c1 ... 90
CN1CC[C@H](c2ccccc2C(F)(F)F)[C@@H](C(=O)Nc2ccc(F)c(F)c2F)C1=O ... 0
O=C(Nc1ccc(F)c(F)c1F)[C@H]1C(=O)N(C2CC2)CC[C@@H]1c1ccc(F)cc1 ... 30
O=C(Nc1ccccc1C(F)(F)F)[C@H]1C(=S)NC[C@@H]1c1ccc(C(F)(F)F)cc1 (racemic) ... 80
Cc1ccncc1NC(=O)[C@H]1C(=O)N(C)C[C@@H]1c1ccc(C(F)(F)F)cc1 ... 0

We now examine a further molecule.
Request: Return reported pest or weed control at 125 g/ha; argument: Cc1cc([C@H]2CN(C)C(=O)[C@@H]2C(=O)Nc2cccc(F)c2F)cc(C)c1Br
Response: 90

---

System: Kochia (Kochia scoparia)
experiment_description: Test A preemergence
Format: in vivo
applied_conditions: 500 g ai/ha, preemergence; 0 to 100 scale, 0 = no effect, 100 = complete control
Reported Plant response rating, Kochia values follow for various molecules
Response field accepts a number only; no unit should be typed.

Cc1ccc(C2CN(C)C(=O)C2C(=O)Nc2ccccc2F)cc1 (centres unmarked) ... 70
Cc1ccc(C2CNC(=O)C2C(=O)Nc2ccc(F)cc2F)cc1C(F)(F)F (racemic) ... 20
CCC1(C(=O)Nc2cccc(F)c2F)C(=O)N(C)CC1c1cccc(C(F)(F)F)c1 (centres unmarked) ... 0
O=C1NCC(c2csc(Br)c2)C1C(=O)Nc1ccccc1F (centres unmarked) ... 50

# next molecule below
Request: Recorded Plant response rating, Kochia for CN1CC(c2cc(F)cc(F)c2)C(C(=O)Nc2cccc(F)c2F)C1=O (centres unmarked) , please?
Response: 80

Data origin, for the record: patent US12077503B2
